- Experimental system: PsApaH (4) (Pseudomonas sp. M30-35)
- Sequence (A0A1Y0KY79 1-342 limits assumed): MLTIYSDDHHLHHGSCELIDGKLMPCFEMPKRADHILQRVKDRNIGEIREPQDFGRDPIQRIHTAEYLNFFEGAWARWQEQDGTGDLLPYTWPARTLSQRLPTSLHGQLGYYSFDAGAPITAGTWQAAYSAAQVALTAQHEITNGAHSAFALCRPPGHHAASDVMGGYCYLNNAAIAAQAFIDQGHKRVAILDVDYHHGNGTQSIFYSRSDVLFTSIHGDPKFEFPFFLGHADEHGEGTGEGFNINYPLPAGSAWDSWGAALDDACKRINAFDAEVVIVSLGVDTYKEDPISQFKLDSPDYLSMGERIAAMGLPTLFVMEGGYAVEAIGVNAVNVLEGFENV
- Assay text: Acetyl-polyamine deacetylase assay
- Assay type: biochemical
- Setup conditions: time 20 min, mean of samples
# [acetate] mean listing for each entry below
The figure you give is taken to be in mM; do not add the unit.

smiles_structure=CC(=O)NCCCCCN experimental_system="PsApaH (4) (Pseudomonas sp. M30-35)" unit=mM value_observed=7.721
smiles_structure=CC(=O)NCCCCNCCCN experimental_system="PsApaH (4) (Pseudomonas sp. M30-35)" unit=mM value_observed=3.4674

Turning now to a further molecule:
Given CC(=O)NCCCNCCCCN , respond with its [acetate] mean.
0.3194
